Entries and their measured growth follow.
Test system: KM12 colon
METHOD_SUMMARY: NCI-60 one-dose screen, 48 h (100 = growth as untreated, 0 = no growth, -100 = all killed)
CONDITION_SUMMARY: 10 µM unless noted
The panel holds about 83,000 compounds, 20% with a hit somewhere; the sample as a whole holds those more often.
Hi! Could you send only the number? It should be in %, unit omitted.

# count of solved cases: 2
>  <MOLECULE>
O=C(Nc1ncc(Cc2ccc(Cl)cc2)s1)C1=NCCCCN1

>  <UNIT_OF_MEASUREMENT>
%

>  <growth>
103

$$$$
>  <MOLECULE>
COC1=C(OC)C(=O)C(CCCCCCCCCCO)=C(C)C1=O

>  <UNIT_OF_MEASUREMENT>
%

>  <growth>
67.5

$$$$

API: the following record is the query input.
Need growth of COc1ccc(Nc2nccc(Nc3ccc4[nH]ncc4c3)n2)cc1 , thanks.
10
